Attribution: the supplement of paper PMC12494721

# Test system: Ruminococcus gnavus DSM 108212
# Protocol: growth (OD595) fold change vs plate DMSO controls (fold change (ratio)); higher = more growth
# Stated conditions: incubation time: 27 h, anaerobic, 37 °C
Counter-ions that a name gives are not always drawn.
Value type: growth
Provide a numeric answer; units are not to be included.

Worked cases, answers included:
Supply growth value. Item: COC(=O)Nc1nc2cc([S+]([O-])c3ccccc3)ccc2[nH]1 (configuration not stated) [Oxfendazole] (20 µM)
0.99

Annotate the compound CN(C)CC/C=C1\c2ccccc2CSc2ccccc21 [Dosulepin hydrochloride] (20 µM) with its measured growth.
0.844

Quote growth reported for CN1CCc2cccc3c2[C@H]1Cc1ccc(O)c(O)c1-3 [R(-) Apomorphine hydrochloride hemihydrate] (20 µM) please.
1.17

Give the measured growth for C#CCN(C)CCCOc1ccc(Cl)cc1Cl [Clorgyline hydrochloride] (20 µM)
0.97

Complete the entry with growth for Cc1ccc(C(C)NC(=O)[C@@H](NC(=O)OC(C)C)C(C)C)cc1 (some centres not stated) (20 µM)
0.999

Others:
For the compound COc1cc2nc(N3CCN(C(=O)C4CCCO4)CC3)nc(N)c2cc1OC (configuration not stated) [Terazosin hydrochloride] (20 µM) , report growth.
0.977

Supply recorded growth for CN1CCCC(CC2c3ccccc3Sc3ccccc32)C1 (configuration not stated) [Metixene hydrochloride] (20 µM) here.
1.25

Quickly give me recorded growth for CN1C(=O)OC(C)(C)C1=O [Trimethadione] (20 µM)
1.27

Note growth for the compound shown: CC(=O)OC[C@H]1O[C@@H]([S-])[C@H](OC(C)=O)[C@@H](OC(C)=O)[C@@H]1OC(C)=O.CCP(CC)CC.[Au+] [Auranofin] (20 µM)
0.00158

Complete the entry with growth for CC(C)(C)NC[C@@H](O)COc1cccc2c1CCCC2=O [(+) Levobunolol hydrochloride] (20 µM)
0.903

For the compound CCN(CCCCOC(=O)c1ccc(OC)c(OC)c1)C(C)Cc1ccc(OC)cc1 (configuration not stated) [Mebeverine hydrochloride] (20 µM) , give its measured growth value.
0.632

Answer with reported growth of OC[C@H]1O[C@H](O[C@]2(CCl)O[C@H](CCl)[C@@H](O)[C@@H]2O)[C@H](O)[C@@H](O)[C@H]1Cl [Sucralose] (50 µM)
1.36

Fill in reported growth for this entry: NS(=O)(=O)c1cc(C2(O)NC(=O)c3ccccc32)ccc1Cl (configuration not stated) [Chlorthalidone] (20 µM)
1.17

Give a short answer stating reported growth for Clc1ccc(CO/N=C(\Cn2ccnc2)c2ccc(Cl)cc2Cl)c(Cl)c1 [Oxiconazole nitrate] (20 µM) .
0.321

Give the reported value of growth for this record: C[N+](C)(C)C[C@H](O)CC(=O)[O-] [Levocarnitine] (20 µM)
0.966

###

# Tested on: Clostridium sporogenes DSM 1664
# Protocol: fold change of Tryptamine concentration vs plate DMSO controls (fold change (ratio)); higher = more amine produced, active = hit call of the paper (significant change in both replicates, either direction)
# Stated conditions: incubation time: 27 h, anaerobic, 37 °C
Where a name gives a salt, the structure may show the parent alone.
Value type: fold change of Tryptamine concentration
Enter the number alone.

Completed entries (count: 3):
Return fold change of Tryptamine concentration (reported value) for this molecule: OCCN1CCN(CC/C=C2/c3ccccc3Sc3ccc(Cl)cc32)CC1 [Zuclopenthixol dihydrochloride] (20 µM)
0.993

Answer with the recorded fold change of Tryptamine concentration for the molecule listed here: NC(=O)[C@@H]1CCCN1C(=O)[C@H](Cc1c[nH]cn1)NC(=O)[C@@H]1CCC(=O)N1 [Thyrotropin-Releasing Hormone] (20 µM)
0.998

Please look at this molecule and report its fold change of Tryptamine concentration: CN(C)CCCN1c2ccccc2Sc2ccc(C(F)(F)F)cc21 [Triflupromazine hydrochloride] (20 µM)
1.05

Pending molecule:
Provide only the value of recorded fold change of Tryptamine concentration for Cc1cc(NS(=O)(=O)c2ccc(N)cc2)nc(C)n1 [Sulfisomidine] (20 µM)
1.08

###

# System: Klebsiella aerogenes DSM 30053
# Protocol: fold change of Putrescine concentration vs plate DMSO controls (fold change (ratio)); higher = more amine produced, active = hit call of the paper (significant change in both replicates, either direction)
# Stated conditions: incubation time: 27 h, anaerobic, 37 °C
Where a name gives a salt, the structure may show the parent alone.
Is fold change of Putrescine concentration at least 1? Then Y. If not, N.

Decide: is the reported value of fold change of Putrescine concentration for Cc1cc(C)nc(NS(=O)(=O)c2ccc(N)cc2)n1 [Sulfamethazine sodium salt] (20 µM) equal to or greater than 1?
Y

Exam item: decide whether the reported fold change of Putrescine concentration for O=C(N/N=C/c1ccc([N+](=O)[O-])o1)c1ccc(O)cc1 [Nifuroxazide] (20 µM) is at least 1.
N

Confirm if fold change of Putrescine concentration reported for the molecule C=C(C)[C@@H]1CC=C(/C=N/O)CC1 [Perillartine] (50 µM) is 1 or above.
Y

Next item in the queue.
Decide: fold change of Putrescine concentration of CCn1cc(C(=O)O)c(=O)c2cc(F)c(N3CCNCC3)cc21 [Norfloxacin] (20 µM) >= 1?
N

###

# Tested on: Ruminococcus gnavus DSM 108212
# Protocol: growth (OD595) fold change vs plate DMSO controls (fold change (ratio)); higher = more growth
# Stated conditions: incubation time: 27 h, anaerobic, 37 °C
Structures can show the parent of a compound that is named as a salt.
Value type: growth

Examples from the recorded data:
Recall the reported growth of Cn1c(=O)c2nc[nH]c2n(C)c1=O [Theophylline monohydrate] (20 µM) when tested on Ruminococcus gnavus DSM 108212.
1.12

Look up and report measured growth (Ruminococcus gnavus DSM 108212) for the following molecule: NC1CCN(c2nc3c(cc2F)c(=O)c(C(=O)O)cn3-c2ccc(F)cc2F)C1 (centres undefined) [Tosufloxacin hydrochloride] (20 µM)
1.45

For Ruminococcus gnavus DSM 108212, give the measured growth of the entry Cc1cc(-c2ccccc2)nnc1NCCN1CCOCC1 [Minaprine dihydrochloride] (20 µM)
1.16

Turning to the following molecule.
Look up and report measured growth (Ruminococcus gnavus DSM 108212) for the following molecule: N=c1ccn2c(n1)O[C@H]1[C@H](O)[C@@H](CO)O[C@H]12 [Ancitabine hydrochloride] (20 µM)
0.855

###

# Test system: Escherichia coli IAI1
# Protocol: fold change of Putrescine concentration vs plate DMSO controls (fold change (ratio)); higher = more amine produced, active = hit call of the paper (significant change in both replicates, either direction)
# Stated conditions: incubation time: 27 h, anaerobic, 37 °C
Counter-ions that a name gives are not always drawn.
Form field: fold change of Putrescine concentration (one value per entry).
Hey, just send me the number, nothing else.

Some molecules with known fold change of Putrescine concentration results, for comparison:
Kindly indicate its recorded fold change of Putrescine concentration. Item: CCOc1nc2cccc(C(=O)O)c2n1Cc1ccc(-c2ccccc2-c2nnn[nH]2)cc1 [Candesartan] (20 µM)
0.981

Please report fold change of Putrescine concentration for the following molecule: CCN1CCC[C@H]1CNC(=O)c1c(O)c(Cl)cc(Cl)c1OC [Raclopride] (20 µM)
1.19

Given the molecule COc1ccccc1OCC(O)CN1CCN(CC(=O)Nc2c(C)cccc2C)CC1 (centres undefined) [Ranolazine] (20 µM) , write its reported fold change of Putrescine concentration.
0.997

Let us examine a further case.
Using the record for O=C1c2c(O)ccc(O)c2C(=O)c2c(NCCNCCO)ccc(NCCNCCO)c21 [Mitoxantrone dihydrochloride] (20 µM) , state its measured fold change of Putrescine concentration.
0.999

###

# Tested on: Escherichia coli IAI1
# Protocol: fold change of Putrescine concentration vs plate DMSO controls (fold change (ratio)); higher = more amine produced, active = hit call of the paper (significant change in both replicates, either direction)
# Stated conditions: incubation time: 27 h, anaerobic, 37 °C
Where a name gives a salt, the structure may show the parent alone.
Value type: fold change of Putrescine concentration
Output spec: single numeric token, no unit.

These solved cases illustrate the format of a correct answer.
Identify the reported fold change of Putrescine concentration for the following entry. CCN1CCC[C@H]1CNC(=O)c1c(OC)ccc(Br)c1OC [Remoxipride hydrochloride] (20 µM)
0.998

Return fold change of Putrescine concentration for the following compound: C[C@H](N[C@@H](CCc1ccccc1)C(=O)O)C(=O)N1CCC[C@H]1C(=O)O [Enalaprilat dihydrate] (20 µM)
1

Report measured fold change of Putrescine concentration; entry is CS(=O)(=O)c1ccc([C@@H](O)[C@@H](CF)NC(=O)C(Cl)Cl)cc1 [Florfenicol] (20 µM)
0.217

Output fold change of Putrescine concentration of Nc1c(Br)cc(Br)cc1CN[C@H]1CC[C@H](O)CC1 [Ambroxol hydrochloride] (20 µM)
1.05

Check the records and state fold change of Putrescine concentration for Cc1cccc(C)c1OCC(C)N (stereo not given) [Mexiletine hydrochloride] (20 µM)
0.985

Provide one value: measured fold change of Putrescine concentration of CC#C[C@]1(O)CC[C@H]2[C@@H]3CCC4=CC(=O)CCC4=C3[C@@H](c3ccc(N(C)C)cc3)C[C@@]21C [Mifepristone] (20 µM)
1.01

For the compound COc1ccc(/C=C/C(=O)Nc2ccccc2C(=O)O)cc1OC [Tranilast] (20 µM) , report fold change of Putrescine concentration.
0.977

Specify reported fold change of Putrescine concentration for the compound shown: COC(=O)C1=C(C)NC(C)=C(C(=O)O[C@H]2CCN(Cc3ccccc3)C2)[C@H]1c1cccc([N+](=O)[O-])c1 [Barnidipine Hydrochloride] (20 µM)
0.989

Give fold change of Putrescine concentration for COC(=O)Nc1nc2ccc(SC(C)C)cc2[nH]1 [Methiazole] (20 µM)
0.996

Read off the recorded fold change of Putrescine concentration for COc1ccc2cc([C@H](C)C(=O)O)ccc2c1 [(S)-Naproxen] (20 µM)
1.06

***
Supply fold change of Putrescine concentration value. Item: CN[C@@H]1[C@@H](O[C@H]2O[C@H](CO)[C@@H](N)[C@H](O)[C@H]2O)OC2C[C@@H](N)[C@@H](O[C@H]3[C@H](O)[C@@H](O)[C@H](N)C[C@@H]3N)OC2[C@@H]1O (stereo not given in full) [Apramycin] (20 µM)
1

Give recorded fold change of Putrescine concentration. CCCCOC(=O)c1ccccc1Nc1cccc(C(F)(F)F)c1 [Ufenamate] (20 µM)
1.06

Give me measured fold change of Putrescine concentration, please, for this compound: C[C@]12CC[C@@H]3c4ccc(O)cc4CC[C@H]3[C@@H]1C[C@@H](O)[C@@H]2O [Estriol] (20 µM)
0.991

Specify reported fold change of Putrescine concentration for the compound shown: Cc1ccc(O)c([C@H](CCN(C(C)C)C(C)C)c2ccccc2)c1 [Tolterodine tartrate] (20 µM)
1.27

Identify measured fold change of Putrescine concentration associated with Cc1[nH]cnc1CN1CCc2c(c3ccccc3n2C)C1=O [Alosetron hydrochloride] (20 µM)
0.971
